# TARGET_ENTITY: AKR1C3 K104D (Homo sapiens, UniProt P42330, K104D)
# Sequence (P42330 whole entry K104D): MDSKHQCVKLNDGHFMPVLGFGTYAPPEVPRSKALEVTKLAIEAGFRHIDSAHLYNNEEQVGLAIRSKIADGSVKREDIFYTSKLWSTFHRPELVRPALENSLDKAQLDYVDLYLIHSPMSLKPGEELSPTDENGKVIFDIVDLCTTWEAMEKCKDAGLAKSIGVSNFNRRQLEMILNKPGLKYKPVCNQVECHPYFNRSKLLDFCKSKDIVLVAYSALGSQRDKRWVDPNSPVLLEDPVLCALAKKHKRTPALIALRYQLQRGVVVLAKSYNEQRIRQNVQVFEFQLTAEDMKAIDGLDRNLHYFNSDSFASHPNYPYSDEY
# TEST_METHOD_NOTES: Kd for NAD
# TEST_CONDITIONS: read-out: Kd NADP+, 0.5 μM protein, pH 7.0, 25 °C, Morrison equation
VALUE_TYPE: pKd
To interpret pKd, take it as minus log10 of a concentration measured in moles per litre.

Input line: What value of pKd has been reported for the following compound? NC(=O)c1ccc[n+]([C@@H]2O[C@H](COP(=O)([O-])OP(=O)(O)OC[C@H]3O[C@@H](n4cnc5c(N)ncnc54)[C@H](OP(=O)(O)O)[C@@H]3O)[C@@H](O)[C@H]2O)c1
Output line: 7.00
